Assay: Cytotoxicity against mouse MA-10 cells at 0.1 to 100 uM after 2 hrs by MTT assay
Type: cell-based
Settings: ma-10, 2 h
Measured Endpoint: Activity

Cn1cc(C2=C(c3coc4ccccc34)C(=O)NC2=O)c2cc(Br)cnc21
Non-toxic
O=C1NC(=O)C(c2cn3c4c(cccc24)CN(C(=O)c2cnccn2)CC3)=C1c1coc2ccccc12
Toxic
Cn1cc(C2=C(c3coc4ccccc34)C(=O)NC2=O)c2cc(Br)ccc21
Non-toxic
O=C1NC(=O)C(c2cn3c4c(cc(F)cc24)CN(C(=O)N2CCC(N4CCCCC4)CC2)CC3)=C1c1coc2ccccc12
Toxic
O=C1NC(=O)C(c2cn3c4c(cc(F)cc24)CN(C(=O)N2CCCCC2)CC3)=C1c1coc2ccccc12
Non-toxic
COCCc1cccc2c(C3=C(c4coc5ccccc45)C(=O)NC3=O)cn(CCOC)c12
Toxic
O=C1NC(=O)C(c2cn3c4c(cc(Br)cc24)CNCC3)=C1c1coc2ccccc12
Toxic
O=C1NC(=O)C(c2cn3c4c(cc(F)cc24)CNCC3)=C1c1coc2ccccc12
Toxic
Cn1cc(C2=C(c3cnc4ccccn34)C(=O)NC2=O)c2cc(Br)ccc21
Non-toxic
COCCn1cc(C2=C(c3coc4ccccc34)C(=O)NC2=O)c2cc(F)c(F)cc21
Toxic
O=C1NC(=O)C(c2cn3c4c(cc(F)cc24)CN(C(=O)N2CCOCC2)CC3)=C1c1coc2ccccc12
Toxic
COc1cc2c(C3=C(c4coc5ccccc45)C(=O)NC3=O)cn(C)c2cn1
Non-toxic
COCCn1cc(C2=C(c3coc4ccccc34)C(=O)NC2=O)c2ccccc21
Non-toxic
O=C1NC(=O)C(c2cn3c4c(cccc24)CN(C(=O)Cc2ccncc2)CC3)=C1c1coc2ccccc12
Toxic
COCCn1cc(C2=C(c3coc4ccccc34)C(=O)NC2=O)c2cccnc21
Toxic
COCCn1cc(C2=C(c3coc4ccccc34)C(=O)NC2=O)c2cc(Br)cnc21
Non-toxic
COCCc1cccc2c(C3=C(c4coc5ccccc45)C(=O)NC3=O)cn(C)c12
Non-toxic

----------
Measured log10 of IC50 (Glycogen synthase kinase-3 beta (Homo sapiens))
Measured Endpoint: log10 of IC50 (log10 of the value in nM)

COCCc1cccc2c(C3=C(c4coc5ccccc45)C(=O)NC3=O)cn(C)c12
1.05
COCCn1cc(C2=C(c3coc4ccccc34)C(=O)NC2=O)c2cc(OC)ncc21
2.10
Cn1cc(C2=C(c3cnc4ccccn34)C(=O)NC2=O)c2cc(Br)ccc21
-0.06
O=C1NC(=O)C(c2cn(CCO)c3ccc(F)cc23)=C1c1coc2ccccc12
0.68
O=C1NC(=O)C(c2cn3c4c(cccc24)CN(C(=O)Cc2ccncc2)CC3)=C1c1coc2ccccc12
-0.23
O=C1NC(=O)C(c2cn3c4c(cc(F)cc24)CNCC3)=C1c1coc2ccccc12
0.57
COc1cc2c(C3=C(c4coc5ccccc45)C(=O)NC3=O)cn(C)c2cn1
1.82
COCCn1cc(C2=C(c3coc4ccccc34)C(=O)NC2=O)c2cc(F)c(F)cc21
1.55
Cn1cc(C2=C(c3cnc4ccccn34)C(=O)NC2=O)c2cc3c(cc21)OCO3
0.72
CNCCCn1cc(C2=C(c3coc4ccccc34)C(=O)NC2=O)c2cc(Br)ccc21
2.61
O=C1NC(=O)C(c2cn3c4c(cc(Br)cc24)CNCC3)=C1c1coc2ccccc12
1.06
COCCn1cc(C2=C(c3coc4ccccc34)C(=O)NC2=O)c2ccccc21
1.30
O=C1NC(=O)C(c2cn3c4c(cccc24)CN(C(=O)c2cnccn2)CC3)=C1c1coc2ccccc12
-0.70
COCCc1cccc2c(C3=C(c4coc5ccccc45)C(=O)NC3=O)cn(CCOC)c12
2.06
CNCCCn1cc(C2=C(c3coc4ccccc34)C(=O)NC2=O)c2cc(F)ccc21
2.31
O=C1NC(=O)C(c2cn3c4c(cccc24)CNCC3)=C1c1coc2ccccc12
0.62
COCCn1cc(C2=C(c3coc4ccccc34)C(=O)NC2=O)c2cc(Br)cnc21
1.40
Cn1cc(C2=C(c3coc4ccccc34)C(=O)NC2=O)c2cccnc21
1.25
O=C1NC(=O)C(c2cn(CCCO)c3ccc(F)cc23)=C1c1coc2ccccc12
1.18
COCCn1cc(C2=C(c3coc4ccccc34)C(=O)NC2=O)c2cc(Br)ccc21
1.92
O=C1NC(=O)C(c2cn3c4c(cc(F)cc24)CN(C(=O)N2CCCCC2)CC3)=C1c1coc2ccccc12
0.28
Cn1cc(C2=C(c3coc4ccccc34)C(=O)NC2=O)c2cc(Br)cnc21
0.72
O=C1NC(=O)C(c2cn3c4c(cc(F)cc24)CN(C(=O)N2CCOCC2)CC3)=C1c1coc2ccccc12
-1.89
NCCn1cc(C2=C(c3coc4ccccc34)C(=O)NC2=O)c2cc(F)ccc21
1.61
NCCn1cc(C2=C(c3coc4ccccc34)C(=O)NC2=O)c2cc(Br)ccc21
2.06
Cn1cc(C2=C(c3coc4ccccc34)C(=O)NC2=O)c2cccc(CCOC(C)(C)C)c21
2.17
O=C1NC(=O)C(c2cn(CCO)c3ccc(Br)cc23)=C1c1coc2ccccc12
1.33
O=C1NC(=O)C(c2cn3c4c(cc(F)cc24)CN(C(=O)N2CCC(N4CCCCC4)CC2)CC3)=C1c1coc2ccccc12
-0.28
COCCn1cc(C2=C(c3coc4ccccc34)C(=O)NC2=O)c2cc(F)ccc21
1.60
COCCn1cc(C2=C(c3coc4ccccc34)C(=O)NC2=O)c2cccnc21
1.76

----------
Assay: Kinetic aqueous solubility of the compound by HPLC analysis
Type: physicochemical
Details: read-out: Kinetic_solubility
compounds and their reported solubility kinetic
Measured Endpoint: solubility kinetic (µg/mL)

Cn1cc(C2=C(c3cnc4ccccn34)C(=O)NC2=O)c2cc(Br)ccc21
35
NCCn1cc(C2=C(c3coc4ccccc34)C(=O)NC2=O)c2cc(Br)ccc21
180
O=C1NC(=O)C(c2cn3c4c(cccc24)CNCC3)=C1c1coc2ccccc12
240

----------
Experiment: Cytotoxicity against mouse MA-10 cells at 100 uM after 2 hrs by MTT assay
Format: cell-based
Settings: ma-10, 2 h
Measured Endpoint: Activity

COCCc1cccc2c(C3=C(c4coc5ccccc45)C(=O)NC3=O)cn(C)c12
Non-toxic
COCCn1cc(C2=C(c3coc4ccccc34)C(=O)NC2=O)c2ccccc21
Non-toxic
COCCn1cc(C2=C(c3coc4ccccc34)C(=O)NC2=O)c2cccnc21
Toxic
